# Lookup of reported TGI keyed by entry
Tested on: NCI/ADR-RES ovarian
assay procedure: NCI tumour cell line growth inhibition, 48 h
outcome measure: TGI (µM)

>>> reading("COCOc1cc(OC)ccc1C=O")
52.1
>>> reading("N#C/C(=C/N1CCN(C(=O)c2ccco2)C1=S)C(N)=O")
59.6
>>> reading("COc1cc(-c2ccc(-c3ccc(C(=N)N)s3)s2)cc(OC)c1OC")
12.9

----------
Test system: UACC-257 melanoma
assay procedure: NCI tumour cell line growth inhibition, 48 h
outcome measure: TGI

>>> reading("C(=N\\NC1=NCCCN1)/c1ccc(-c2cn3cc(/C=N/NC4=NCCCN4)ccc3n2)cc1")
"> 100 µM"
>>> reading("CO/N=C1/c2cc(OC)ccc2-c2c(NOC)nc3ccccc3c21")
"> 100 µM"
>>> reading("Cc1nn(-c2ccccc2)c(C)c1/C=N/NC(=O)c1sc(=S)n(-c2ccc(Cl)cc2)c1N")
"> 100 µM"
